- protocolDetails: yeast display, Sf9 membrane polyspecificity reagent, FACS + sequencing; frameworks hold sequencing errors
outcomeMeasure: polyreactivity (PSR sort gate)

Would you please look over these solved cases?
QVQLVESGVGLVQAGCSLRLSCAASGSTFVLNAMGWYLQAAGKERELVAAISRGGASTYSADSVKGRFTISRDYAKNTVYLQMNSLKPEDTAVYYCNASGYGPGVVIYLVVYDYWGQGTQVTVSS ... low polyreactivity
QVQLVESGGGLVQAGGSLRLSCAASGYIFGYYAMGWYRQAPGKERELVAAIRSGGNTYYADSVKGRFTISRDNAKNTVYLQMNSLKPEDTAVYYCAKRYGRFSDYWGQGTQVTVSS ... high polyreactivity
QVQLVESGGGLVQAGGSLRLSCAASGRTFRWYAMGWYRQAPGKERELVAAIRRSGGGTYYADSVKGRFTISRDNAKNTVYLQMNSLKPEDTAVYYCNTDYPVYQRGVISDGFDYWGQGTQVTVSS ... low polyreactivity
QVQLVESGGGLVQAGGSLRLSCAASGRTFGKYAMGWYRQAPGKERELVARISRRGGTTYYADSVKGRFTISRDNAKNTVYLQMNSLKPEDTAVYYCAAGGTYGAVEEAHDSWGHGTQVTVSS ... high polyreactivity

IN: Request the reported polyreactivity (PSR sort gate) associated with `QVQLVESGGGLVQAGGSLRLSCAASGFIFWWYGMGWYRQSPGKEREFVAAITQSGSTYYADSVKGRFTISRDNAKNTVYLQMNSLKPEDTAVYYCAAVVGRRLYPRYDYWGQGTQVTVSS`
OUT: high polyreactivity

* * *

- protocolDetails: yeast display, Sf9 membrane polyspecificity reagent, FACS + sequencing; frameworks hold sequencing errors
outcomeMeasure: polyreactivity (PSR sort gate)

Below: 4 sequences and their reported polyreactivity (PSR sort gate).
QVQLVESGGGLVQAGGSLRLSCAASGGIFIGYAMGWYRQAPGKERELVAAISYSGGSTYYADSVKGRFTISRDNAKNTVYLQMNSLKPEDTAVYYCAAQVDRKYRWFNSWGQGTQVTVSS ... high polyreactivity
QVQLVESGGGLVQAGGSLRLSCAASGRIFVTNAMGGYRQAPGKEREFVAGISFSGDGRTYYADSVKGRFTISRDNAKNTVYLQMNSLKPEDSAVYYCAAPHRSRTHELDYWGQGTQVTVSS ... low polyreactivity
QVQLVESGGGLVQAGGSLRLSCAASGFIFYYNTMGWYRQAPGKERELVASITWSGDTTYYADSVKGRFSISRDNAKNTVYLQMNSLIPEDTAVYYCAAVHYYPYRRYDYWGQGTQVTVSS ... low polyreactivity
QVQLVESGGGLVQAGGSLRLSCAASGSTFSRYAMGWYRQAPGKERELVAAISWSGASTYYADSVKGRFTISRDNAKNTVYLQMNRLKPEDTSVYYCAKVARQNWFRYYYDYWGQGTQVTVSS ... high polyreactivity

Now, please, on to the next sequence.
IN: Which polyreactivity (PSR sort gate) is reported for this sequence? `QVQLVESGGGLVQAGGSLRLSSADSGSIFVYYAMGWYRQEPGKESELVATIRSSGARTYYADSVKGRFTISRDNAKNTVYLQINSLKPEDTAVYYCNARYVPYWAYGYGYWGQGTQVTVSS`
OUT: high polyreactivity

* * *

- protocolDetails: yeast display, Sf9 membrane polyspecificity reagent, FACS + sequencing; frameworks hold sequencing errors
outcomeMeasure: polyreactivity (PSR sort gate)

QVQLVESGGGLVQAGGSLRLSCAASGSIFYKYMGWNIQAPGKERELVAAISWSGGRTYYADSVKGRFTISRDNAKNTVYLQMNSLKPEDTAVYYCNRVVLWRIGDKAFEYWGQGTQVTVSS ... high polyreactivity
QVQLVESGGGLVQAGGSLRLSCAASGFIFYFNAMGWYRQAPGKERELVAAISASGGRTYYADSVKGRFTISRDNAKNTVYLQMNSLIPEDTAVYYCAADIRGYDYWGQGTQVTVSS ... high polyreactivity
QVQLVESGGGLVQAGGSLRLSCAASGIIFVDYAMGWYRQAPGKEREFVAAITWSGGSTRYADSVKGRFTISRDNAKNTVYLQMNSLKPEDTAVYYCAALGYNVSSRGYYYWGQGTQVTVSS ... low polyreactivity
QVQHVESGGGLVQAGGSLRLSCAASGFIFYKYAMGWYRQAPGKERELVAAISKRGGSTYYADSVKGRFTISRDNAKNTVYLQMNSLKPEDTAVYYCATDGGNSATVRYVASDYWGQGTQVTVSS ... high polyreactivity
QVQLVESGGGLVQAGGSLRLSCAASGRIFKFNAMGWYREAPGKERELVAAITTGGGSTYYADSVKGRFTISRDNAKNTVYLQMNSLKPEDTAVYYCATDRRHEYSSRRYYYWGQGTQVTVSS ... high polyreactivity

Give polyreactivity (PSR sort gate) for each listed item.
1. QVQLVESGGGLVQAGGSLRLSCAASGRIFWRNAMGWYRQAPGKERELVAAISSGGSTYYADSVKGRFTISRDNAKNTVYFQMNSLKPEDTAVYYCAARSSWRGVRYDHFERDYWGQGTQVTVSS
2. QDQLVESGGGLVQAGGSLRLSCAASGSIFVGYAMGWYRQAPGKETELVAAISTRGGSTYYADSVKGRFTISRDNAKNTVYLQMNSVKPEDTAVYYCAADYLDSTYGYVYGWDDYWGQGTQVTVSS
3. QVQLVESGGGLVQAGGSLRLSCAASGSIFLTNAMGWYRQAPGKERELVAAIRSGGSTSYADSVKGRFTISRDNAKNTVYLQMNSLKPEDTAVYYCNAESDYRNYKVHPSGIYEYWGQGTQVTVSS

OUT:
1: high polyreactivity; 2: low polyreactivity; 3: low polyreactivity
